Form field: composite z-score (one value per entry).
# Test system: Sonic hedgehog protein (Shh)
# experiment.summary: small-molecule binders of Shh protein, primary screen, biochemical, small-molecule microarray, 635/667 nm fluorescence (AID 1151);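 also: Shh protein binding to compounds spotted on small-molecule microarray slides; score combines spot fluorescence intensity with signal-to-noise across triplicate slides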
# condition.details: small-molecule microarray binding, 635 nm fluorescence; higher = more signal
// no unit, no text: just the number

>>> recorded_number("C#CCCCON=C1[C@H]2CCn3c(=O)n(C)c(=O)n3[C@H]2[C@H](O)[C@@H]2O[C@H]12")
0.837
>>> recorded_number("C[C@@H]1CC[C@H]2C(=O)O[C@@H](Cc3ccccc3)CN2[C@H]1c1ccc(Br)cc1")
0.656
>>> recorded_number("COC(=O)[C@@H]1CC[C@H](C)[C@@H](c2ccc(C)cc2)N1C(=O)c1ccc(C=NO[C@@H]2O[C@H](COC(C)=O)[C@@H](OC(C)=O)[C@H](OC(C)=O)[C@H]2OC(C)=O)cc1")
0.891

Documented composite z-score of CO[C@H]1COC(=O)CC=C[C@@H](C)[C@H](OC)COC(=O)CCC[C@@H]1C : 1.18

Documented composite z-score of CC(C)CON=C1C[C@@H](O)[C@@H](O)[C@@H]2[C@@H]3C(=O)N(c4cccc(Oc5ccccc5)c4)C(=O)[C@@H]3CC[C@@H]12 : 1.7

Documented composite z-score of O=C1C2=CC[C@H]3C(=O)N(c4cccc(Oc5ccccc5)c4)C(=O)[C@H]3[C@H]2[C@H](O)[C@@H]2O[C@H]12 : 0.264

Documented composite z-score of CCOC(=O)[C@H](Cc1ccccc1)NC(=O)CCC1CC(OC(=O)NCc2ccc3c(c2)OCO3)CC2(CCCC(COC(=O)NCCC(C)C)O2)O1 (stereo not given in full) : 1.74

Documented composite z-score of CC(C)=NO[C@H](C)c1cn([C@H](CO)Cc2ccccc2)nn1 : -0.195

Documented composite z-score of CC(C)=CCCC(C)=CCON=C1C[C@@H](O)[C@@H](O)[C@@H]2[C@@H]3C(=O)N(Cc4ccccc4)C(=O)[C@@H]3CC[C@@H]12 : 1.88
